Target: CYP3A4 (Homo sapiens, UniProt P08684)
Sequence (P08684 whole entry): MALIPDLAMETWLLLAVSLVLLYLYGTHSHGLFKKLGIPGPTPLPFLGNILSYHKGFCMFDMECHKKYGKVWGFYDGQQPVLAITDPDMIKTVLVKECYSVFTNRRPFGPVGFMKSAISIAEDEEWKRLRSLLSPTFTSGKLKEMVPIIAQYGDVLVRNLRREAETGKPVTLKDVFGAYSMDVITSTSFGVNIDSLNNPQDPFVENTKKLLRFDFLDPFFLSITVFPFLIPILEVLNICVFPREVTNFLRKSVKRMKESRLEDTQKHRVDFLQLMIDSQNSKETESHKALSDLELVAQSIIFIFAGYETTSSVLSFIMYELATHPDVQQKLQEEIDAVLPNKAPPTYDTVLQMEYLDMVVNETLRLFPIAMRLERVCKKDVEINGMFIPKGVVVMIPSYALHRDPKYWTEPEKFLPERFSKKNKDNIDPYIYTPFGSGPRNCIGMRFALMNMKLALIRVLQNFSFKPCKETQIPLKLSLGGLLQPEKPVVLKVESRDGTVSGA
Test: biochemical
Settings: CYP3A4 AC50 (half-maximal activity concentration)
Counter-ions that a name gives are not always drawn.
Catalogue of compounds with associated AC50
Write the value in µM as a bare number.

// field: AC50; key: CC(C)OC(=O)COc1ccc(Cl)cc1Cl ; value = 7.02

// field: AC50; key: O=c1[nH]c2ccccc2n1CCCN1CCN(C(c2ccccc2)c2ccccc2)CC1 [Oxatomide] ; value = 1.39

// field: AC50; key: CC(CCc1ccccc1)NCC(O)c1ccc(O)c(C(N)=O)c1 (stereo not shown) [Labetalol hydrochloride] ; value = 34.8

// field: AC50; key: O=CC(Br)(Br)Br ; value = 10.2

// field: AC50; key: CC(C)N(C(=O)COc1nnc(C(F)(F)F)s1)c1ccc(F)cc1 ; value = 19.3

// field: AC50; key: CCOP(=O)(Sc1ccccc1)Sc1ccccc1 ; value = 8.65

// field: AC50; key: CCCCCCCCOc1ccc(C(=O)c2ccccc2)c(O)c1 ; value = 26.2

// field: AC50; key: N#Cc1cc(Br)c(O)c(Br)c1 ; value = 29.6

// field: AC50; key: CCCCc1c(C)nc(NCC)[nH]c1=O ; value = 31.8

// field: AC50; key: Oc1c(Cl)ccc(Cl)c1Cl ; value = 55.4
